target or test system: Adenosine receptor A1 (Homo sapiens)
assay name: Displacement of [3H]DPCPX binding at human Adenosine A1 receptor expressed in CHO cells; ranges from 363-514
Assay type: cell-based

entry smiles: Nc1nc2c(cnn2CCCc2ccc3c(c2)OC(CO)(CO)O3)c2nc(-c3ccco3)nn12
result unit: nM
Ki: 432

* * *

target or test system: Adenosine receptor A1 (Homo sapiens, UniProt P30542)
Sequence (P30542 whole entry): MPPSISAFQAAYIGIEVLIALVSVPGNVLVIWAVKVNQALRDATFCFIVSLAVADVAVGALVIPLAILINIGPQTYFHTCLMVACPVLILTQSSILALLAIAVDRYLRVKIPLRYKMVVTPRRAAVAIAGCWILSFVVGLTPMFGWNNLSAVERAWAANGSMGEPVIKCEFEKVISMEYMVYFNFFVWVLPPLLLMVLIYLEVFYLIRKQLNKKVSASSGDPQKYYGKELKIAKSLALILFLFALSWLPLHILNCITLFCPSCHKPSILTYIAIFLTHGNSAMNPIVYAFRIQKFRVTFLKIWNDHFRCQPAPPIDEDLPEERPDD
assay name: Displacement of [3H]DPCPX from human Adenosine A1 receptor expressed in CHO cells; ranges from 1460-2201
Format: cell-based
pKi: −log10 of the molar value.

entry smiles: CCOC(=O)[C@@H]1Oc2ccc(CCCn3ncc4c3nc(N)n3nc(-c5ccco5)nc43)cc2O1
pKi: 5.75
